experimental-context: buffer; pH 7.4; 200.0 µM
# solubility kinetic binned as bottom range (below 2 µg/mL), center range (2 µg/mL to below 30 µg/mL), top range (30 µg/mL or more)

compound: CCc1nc(N2CCN(C(C)=O)CC2)c(C#N)c2c1COC(C)(C)C2
answer-label: top range
//
compound: N#CCSc1nc2ccccc2c(=O)n1CCCC(=O)NCc1ccco1
answer-label: center range
//
compound: Cc1nc(SCC(=O)NC2CCCCC2C)nc(C)c1C (stereo not given)
answer-label: top range
//
compound: C=CCNC(=O)C(C)N1c2cccc3cccc(c23)S1(=O)=O (stereo not given)
answer-label: top range
//
compound: COc1ccc(OCCOCCN2CCN(C)CC2)cc1.O=C(O)C(=O)O
answer-label: top range
//
compound: CN(C)S(=O)(=O)c1cccc(C(=O)c2nccn2C)c1
answer-label: top range
//
compound: COCCCNc1nc2ccccc2[nH]c1=O
answer-label: top range
//
compound: Cc1ccc(C(=O)NCCN2CCNC2=O)cc1
answer-label: top range
//
compound: Nc1cccc(S(=O)(=O)Nc2ccc(Br)cc2)c1
answer-label: top range
//
compound: COc1ccc(Br)cc1C(=O)Nc1cccc2ncccc12
answer-label: bottom range

(Q) Hello team, could you let me know which band the following compound falls into: `Cc1[nH]c2ccccc2c1CCNC(=O)c1c(N)no[n+]1[O-]`
(A) top range

(Q) Hello team, could you let me know which band the following compound falls into: `COc1ccc(/C(=N/Nc2ncnc3ccccc23)C(=O)O)cc1`
(A) top range

(Q) Hello team, could you let me know which band the following compound falls into: `COC(=O)Cc1ccc(NC(=S)NCCO)cc1`
(A) top range

(Q) Hello team, could you let me know which band the following compound falls into: CC(C)C(C)NC(=O)COc1ccc(OCc2ccccc2)cc1 (stereo not given)
(A) bottom range

(Q) Hello team, could you let me know which band the following compound falls into: `Cc1ccc(OCC(=O)Nc2ccc3c(c2)CCC3)c([N+](=O)[O-])n1`
(A) center range

(Q) Hello team, could you let me know which band the following compound falls into: `Nc1cc(Cl)ccc1Nc1ccncc1`
(A) top range

(Q) Hello team, could you let me know which band the following compound falls into: `Cc1cccnc1NC(=O)c1ccc(C(=O)c2ccccc2)cc1`
(A) top range

(Q) Hello team, could you let me know which band the following compound falls into: `O=C(NC1CCCCC1)N1CCN(c2ccc(Cl)cc2)CC1`
(A) center range

(Q) Hello team, could you let me know which band the following compound falls into: `CC(C)c1ccc(NC(=O)CN2CCN(c3ccccn3)CC2)cc1`
(A) bottom range

(Q) Hello team, could you let me know which band the following compound falls into: `Cc1cc(C)c(C(=O)NNC(=O)c2cccnc2)c(C)c1`
(A) top range

====

Examples of compounds with documented solubility kinetic follow.
experimental-context: buffer; pH 7.4; 200.0 µM
// note: answer is a bare numeric in mg/mL

The cases that follow already have their solubility kinetic on record.
compound: COc1ccc2o/c(=N\O)c(C(=O)Nc3ccc(C)cc3)cc2c1
property-name: solubility kinetic
readout-unit: mg/mL
reported-result: 0.0117

compound: O=C(CSc1nc2c(c(=O)[nH]1)CCC2)Nc1ccc(F)cc1
property-name: solubility kinetic
readout-unit: mg/mL
reported-result: 0.0107

compound: CCOc1ccc(N(C)Cc2cc(=O)oc3ccc(OCC)cc23)cc1
property-name: solubility kinetic
readout-unit: mg/mL
reported-result: 0.0023

Form: compound = C=CCNC(=S)NC(CC(=O)OC)c1ccc2c(c1)OCO2 (configuration not stated) ; solubility kinetic = 0.0303

Form: compound = CC(OC(=O)CCc1nc2ccccc2[nH]c1=O)c1ccccc1 (configuration not stated) ; solubility kinetic = 0.0119

Form: compound = `Cc1cc(NC(=O)CCc2ccc(-c3ccccc3)o2)no1` ; solubility kinetic = 0.0024

Form: compound = Cc1cc(F)c(F)c(C(=O)N2CCCCC2C)c1Cl (configuration not stated) ; solubility kinetic = 0.0346

Form: compound = `Nc1ncnc(N2CCc3ccccc32)c1[N+](=O)[O-]` ; solubility kinetic = 0.0018
